test system: NCI-H226 lung; assay: NCI tumour cell line growth inhibition, 48 h
endpoint: TGI

>  <compound>
C[Si](C)(C)/C(Br)=C\CCN1C(=O)CCC1=O

>  <TGI>
> 100 µM

$$$$
>  <compound>
Cc1cc2cc3c(=O)[nH]c(=O)[nH]c3nc2cc1C

>  <TGI>
> 100 µM

$$$$
>  <compound>
CCc1nc(N)nc(N)c1-c1ccc([N+](C)(C)C)cc1

>  <TGI>
> 100 µM

$$$$
>  <compound>
CCc1ccc(/C=C/c2ccc(O)c3ncccc23)[n+](C)c1

>  <TGI>
> 100 µM

$$$$
>  <compound>
CS/C(=C(\S)c1ccccc1)c1ccccc1

>  <TGI>
> 100 µM

$$$$

Prompt: Report TGI on NCI-H226 lung for this entry: O=c1c2ncn(C3CCCO3)c2n(-c2ccccc2)c(=S)n1-c1ccccc1 (centres undefined)
Response: > 100 µM

Prompt: Tell me its TGI on NCI-H226 lung: "CCOC(=O)Cc1ccc(Nc2nc3ccccc3nc2C(=O)OCC)cc1"
Response: > 100 µM

Prompt: Give TGI for C=CCN1CCC(O)(c2cc(C(=O)OCC)[nH]c2-c2cc(C)no2)C1 (centres undefined) tested on NCI-H226 lung.
Response: > 100 µM

Prompt: Give TGI only, for "COc1cc(/C=C/C(=O)Oc2ccc(NC(C)=O)cc2)ccc1C(=O)O/C=C/c1ccccc1" , using NCI-H226 lung data.
Response: > 100 µM

Prompt: Determine reported TGI for "Cc1cc(C(F)(F)F)cc(-n2nc(NS(=O)(=O)c3cc(C)c(Cl)cc3S)nc2N)n1" ; test system: NCI-H226 lung.
Response: > 100 µM

----------
test system: COLO 205 colon; assay: NCI tumour cell line growth inhibition, 48 h
endpoint: TGI

>  <compound>
COc1cccc(C2CC23C(=O)NC(=O)NC3=O)c1 (stereo unspecified)

>  <TGI>
> 100 µM

$$$$
>  <compound>
CN(C)CCCn1cnc2cc(Cl)c(Cl)cc21

>  <TGI>
> 100 µM

$$$$
>  <compound>
Nc1c(C(=O)c2ccccc2)cnn1-c1ccc(F)cc1

>  <TGI>
> 25 µM

$$$$
>  <compound>
C[N+](C)(C)CC1CCC/C1=N\OC(=O)c1ccccc1 (stereo unspecified)

>  <TGI>
> 100 µM

$$$$
>  <compound>
Oc1ccc2ccccc2c1N=Nc1ccc(Br)cc1

>  <TGI>
> 100 µM

$$$$
>  <compound>
C=COC(=O)N[C@H]1CCc2cc(OC)c(OC)c(OC)c2-c2ccc(SC)c(=O)cc21

>  <TGI>
< 0.01 µM

$$$$
>  <compound>
C[C@H]1C(=O)O[C@@H]2CCN3CC=C(COC(=O)[C@](C)(O)[C@@]1(C)O)[C@H]23

>  <TGI>
> 100 µM

$$$$
>  <compound>
CCc1ccc(/C=C/c2ccc(O)c3ncccc23)[n+](C)c1

>  <TGI>
> 89.8 µM

$$$$

Prompt: Look up and report measured TGI for this entry: "CCC(=O)O[C@H]1CC[C@H]2[C@@H]3CCC4=C/C(=N/OC(=O)c5cccc6cc7ccccc7nc56)CC[C@]4(C)[C@H]3CC[C@]12C"
Response: > 100 µM

Prompt: Respond only with TGI recorded for "C[C@H](Nc1cc(Cl)nc2c1cnn2[C@@H]1O[C@H](COP(=O)(O)CP(=O)(O)O)[C@@H](O)[C@H]1O)c1ccccc1F"
Response: > 100 µM

Prompt: Please list TGI recorded for the compound "COC(=O)C1=C(O)c2ccc(Cl)cc2S(=O)(=O)N1C"
Response: > 100 µM

----------
test system: HOP-92 NSCLC; assay: NCI tumour cell line growth inhibition, 48 h
Reported TGI values are given for each entry in this list.

>  <molecule>
COc1ccc(/C=C2\c3cc(OC)c(OC)cc3CCN2C(=O)c2ccccc2)cc1OC

>  <reported.measurement>
> 100 µM

$$$$
>  <molecule>
CC(C)=CCc1cc2c(cc1O)OC[C@H]1c3cc4c(cc3O[C@@H]21)OCO4

>  <reported.measurement>
> 100 µM

$$$$
>  <molecule>
O=C(CC(C(=O)c1ccsc1)c1ccccc1)c1ccccc1 (stereo not given)

>  <reported.measurement>
> 100 µM

$$$$

Prompt: Given O=S(=O)(c1ccccc1)N1N=C2c3ccccc3CCC[C@H]2C1c1ccccc1 (stereo not given in full) , respond with its TGI.
Response: > 100 µM

Prompt: Please report TGI for the following molecule: "O=C1c2cccc3cccc(c23)C(=O)N1CCCCCN1CCN(CCCCCOc2ccc(-c3nc4ccc(N5CCOCC5)cc4[nH]3)cc2)CC1"
Response: > 58.2 µM

Prompt: Report measured TGI; entry is Nc1ccn(C2OC(C(O)CO)C(O)C2O)c(=O)n1 (stereo not given)
Response: > 100 µM

Prompt: Using the record for "O=C(NNc1ccccc1)C(=O)NNc1ccccc1" , state its measured TGI.
Response: > 100 µM

Prompt: Hello, please tell me recorded TGI for this one: "Nc1c(C(=O)c2ccccc2)cnn1-c1ccc(F)cc1"
Response: > 25 µM

Prompt: Read the entry "CCOC(=O)C(CCN1CCC2(CC1)C(=O)N(C)CN2c1ccccc1)C(=O)OCC" and write its reported TGI.
Response: > 100 µM

Prompt: Give the measured TGI for "Cc1ncc([N+](=O)[O-])n1CCNCCCCn1ccnc1[N+](=O)[O-]"
Response: > 100 µM

----------
test system: A549 NSCLC; assay: NCI tumour cell line growth inhibition, 48 h
endpoint: TGI

Worked examples follow.
>  <compound.structure.string>
CC(C)(C)OC/C=C(/CO)[C@@H]1C=C[C@H](O)C1

>  <system.tested>
A549 NSCLC

>  <endpoint>
TGI

>  <reported.measurement>
> 100 µM

$$$$
>  <compound.structure.string>
COc1ccc(/C=C(\C(C)=O)C(=O)Nc2ccccc2)cc1

>  <system.tested>
A549 NSCLC

>  <endpoint>
TGI

>  <reported.measurement>
> 100 µM

$$$$

Let us move to another entry and its TGI.
Prompt: Specify TGI for "COc1ccc2c(C(=O)c3cn(CCN4CCOCC4)c4ccccc34)cccc2c1" and stop.
Response: > 100 µM

----------
tested on: ACHN renal; experiment: NCI tumour cell line growth inhibition, 48 h
endpoint: GI50

# annotated cases, reported GI50 shown
>  <molecule>
CCCCCCCN=C(N)c1ccc(N2CCN(c3ccc(C(N)=NCCCCCCC)cc3)CC2)cc1

>  <GI50>
0.499 µM

$$$$
>  <molecule>
CCc1ccc(/C=C/c2ccc(O)c3ncccc23)[n+](C)c1

>  <GI50>
> 61.1 µM

$$$$
>  <molecule>
Clc1nc(Cl)nc(Nc2cccc3ccccc23)n1

>  <GI50>
92.5 µM

$$$$
>  <molecule>
CN(C)CCC(=O)C(=Cc1ccc(O)cc1)C(=O)CCN(C)C

>  <GI50>
> 100 µM

$$$$
>  <molecule>
O=C1c2cccc3cccc(c23)C(=O)N1CCCCCN1CCN(CCCCCOc2ccc(-c3nc4ccc(N5CCOCC5)cc4[nH]3)cc2)CC1

>  <GI50>
> 35.7 µM

$$$$

Prompt: Supply reported GI50 belonging to this molecule: "Nc1c(C(=O)c2ccccc2)cnn1-c1ccc(F)cc1"
Response: > 25 µM

Prompt: Identify measured GI50 associated with "COc1ccc(-c2cc(/C=C/C(=O)c3ccc(OC)c(OC)c3)[nH]n2)cc1"
Response: 1.68 µM

Prompt: Provide measured GI50 value, entry: "COc1ccc(Cn2c(N)c(S(=O)(=O)c3ccc(Cl)cc3)c3nc(C#N)c(C#N)nc32)cc1"
Response: 6.22 µM

Prompt: Fill in reported GI50 for this entry: "BrCc1cccc(C[P+](c2ccccc2)(c2ccccc2)c2ccccc2)c1"
Response: > 100 µM

Prompt: Tell me GI50 reported for "Cc1ccc(Nc2oc(-c3ccccc3)nc2[P+](c2ccccc2)(c2ccccc2)c2ccccc2)cc1"
Response: 0.988 µM

----------
The entries below are paired with their reported TGI.
tested on: U251 CNS; experiment: NCI tumour cell line growth inhibition, 48 h

Solved entries (count: 5):
>  <molecule>
C=COC(=O)N[C@H]1CCc2cc(OC)c(OC)c(OC)c2-c2ccc(SC)c(=O)cc21

>  <TGI>
3.02 µM

$$$$
>  <molecule>
Cc1nc2ccc(F)cc2c2c1CCN2c1ccc(Cl)cc1

>  <TGI>
71.8 µM

$$$$
>  <molecule>
Clc1nc(Cl)nc(Nc2cccc3ccccc23)n1

>  <TGI>
> 100 µM

$$$$
>  <molecule>
COc1ccc2c(C(=O)c3cn(CCN4CCOCC4)c4ccccc34)cccc2c1

>  <TGI>
> 100 µM

$$$$
>  <molecule>
S=c1[nH]c2c(Cl)c(Cl)c(Cl)c(Cl)c2[nH]1

>  <TGI>
> 100 µM

$$$$

Prompt: Enter TGI (test system U251 CNS) for "CCCCCCCN=C(N)c1ccc(N2CCN(c3ccc(C(N)=NCCCCCCC)cc3)CC2)cc1"
Response: 9.34 µM
